Catalogue of Yap1 mRNA, % UTC values
System: Yap1 mRNA
Assay: Dose-dependent inhibition of human Yap1 in A-431 cells (Example 8, 10,000 cells per well, RTS4814)
Assay type: cell-based
Details: 500.0 nM; A-431 cells, 10,000 cells per well, free uptake, approximately 48 hours, RTS4814
Strand notation (5' to 3'): a small letter for the sugar, then the base; units joined by * are phosphorothioate-linked, units joined directly phosphodiester-linked; [ ] holds rarer units or linkages, { } end groups; capitals alone tell only the bases. k = constrained ethyl (cEt); [5mC] = 5-methylcytosine; d = 2'-deoxy (DNA)
Use % UTC as the unit, but write only the number.

Study these solved cases before continuing.
{"substance": "1074368 (kG*kA*kT*dA*dG*dT*dA*dT*d[5mC]*dA*d[5mC]*d[5mC]*dT*kG*kT*kA; antisense) [compound 1074368]", "Yap1 mRNA, % UTC [% UTC]": 15}
{"substance": "1074444 (kA*k[5mC]*kA*dT*dT*dT*dT*dT*dG*dG*d[5mC]*dT*dT*kG*kT*k[5mC]; antisense) [compound 1074444]", "Yap1 mRNA, % UTC [% UTC]": 7}

// fetch Yap1 mRNA Yap1 mRNA, % UTC for 1076291 (kG*kA*kT*dT*dA*dA*dT*dG*dG*dT*dG*dG*d[5mC]*kA*kT*kT; antisense) [compound 1076291]
8

Could you share what Yap1 mRNA, % UTC was measured for 1075855 (antisense kG*kA*kT*dT*dT*dT*dT*dA*dG*dG*d[5mC]*dA*dG*kA*k[5mC]*kG) [compound 1075855] , tested on Yap1 mRNA?
12

Can you look up Yap1 mRNA, % UTC on Yap1 mRNA for 1074639 (antisense kT*kA*kG*dA*dT*dT*dT*dT*dG*dT*dA*dA*dT*kT*kG*kG) [compound 1074639] ?
7

Could you share what Yap1 mRNA, % UTC was measured for 1074536 (kA*kG*kT*dA*dA*dT*dA*dG*d[5mC]*dT*d[5mC]*dT*dT*kT*k[5mC]*kT; antisense) [compound 1074536] , tested on Yap1 mRNA?
9

* * *

System: Yap1 mRNA
Experiment: Dose-dependent inhibition of human Yap1 in A-431 cells (Example 8, 10,000 cells per well, RTS4814)
Format: cell-based
Conditions: 31.3 nM; A-431 cells, 10,000 cells per well, free uptake, approximately 48 hours, RTS4814
Strand notation (5' to 3'): a small letter for the sugar, then the base; units joined by * are phosphorothioate-linked, units joined directly phosphodiester-linked; [ ] holds rarer units or linkages, { } end groups; capitals alone tell only the bases. k = constrained ethyl (cEt); [5mC] = 5-methylcytosine; d = 2'-deoxy (DNA)
Binary classification by Yap1 mRNA, % UTC, with 60 % UTC as an inclusive lower bound for y; all other cases are n.

Say whether 1076525 (kG*kA*kA*dT*dT*dT*dA*dT*dA*dT*d[5mC]*dA*dG*kG*kT*k[5mC]; antisense) [compound 1076525] shows Yap1 mRNA, % UTC of 60 % UTC or more.
n

Hello, I need to know if 1076491 (kA*kG*k[5mC]*d[5mC]*dA*dA*dA*dA*dT*dA*dG*dG*dT*kG*kA*kG; antisense) [compound 1076491] has measured Yap1 mRNA, % UTC not below 60 % UTC. Thanks!
y

# bool: Yap1 mRNA, % UTC of 1076115 (k[5mC]*kA*kT*dT*dA*dG*dT*dA*dA*dG*d[5mC]*dT*dG*kA*kG*kG; antisense) [compound 1076115] >= 60 % UTC
n

Exam item: decide whether the reported Yap1 mRNA, % UTC for 1076458 (k[5mC]*kT*kT*dA*dA*dT*dT*dA*dG*d[5mC]*d[5mC]*dT*d[5mC]*kA*kG*kT; antisense) [compound 1076458] is at least 60 % UTC.
y

Determine whether measured Yap1 mRNA, % UTC meets or exceeds 60 % UTC for 1074576 (DNA kA*kT*kG*d[5mC]*dA*d[5mC]*dA*dT*dT*dA*dT*dG*dA*kA*k[5mC]*k[5mC]) [compound 1074576]
y

hey, is Yap1 mRNA, % UTC for this one >= 60 % UTC? 1076453 (GTAATATTGCAATCTG; 3-10-3 cEt gapmer, further chemistry not given here) [compound 1076453]
n

Decide: is the reported value of Yap1 mRNA, % UTC for 1074290 (antisense k[5mC]*kT*kG*dA*d[5mC]*dT*dG*dA*dT*dT*d[5mC]*dT*d[5mC]*kT*kG*kG) [compound 1074290] equal to or greater than 60 % UTC?
n

Exam item: decide whether the reported Yap1 mRNA, % UTC for 1074629 (DNA kG*kA*kG*dA*dT*dT*dT*dT*dA*dT*dG*d[5mC]*d[5mC]*kT*kG*kT; antisense) [compound 1074629] is at least 60 % UTC.
n

Please indicate if the recorded Yap1 mRNA, % UTC for 1076294 (kT*kA*kT*dA*dT*dT*dA*dG*dT*dG*d[5mC]*d[5mC]*d[5mC]*k[5mC]*k[5mC]*kT; antisense) [compound 1076294] meets or exceeds 60 % UTC.
y

Given 1074626 (DNA k[5mC]*kT*kG*dT*dT*dA*dT*dG*dA*dA*d[5mC]*d[5mC]*d[5mC]*kT*kT*kG) [compound 1074626] , state whether its Yap1 mRNA, % UTC is at least 60 % UTC.
n

Say whether 1076527 (kG*k[5mC]*kA*d[5mC]*dA*dA*d[5mC]*d[5mC]*dT*dT*dA*d[5mC]*dA*kT*kT*kT; antisense) [compound 1076527] shows Yap1 mRNA, % UTC of 60 % UTC or more.
y

Ref: patent US11214803B2
